# System: bedstraw
# TEST METHOD NOTES: Test B pre/postemergence bedstraw
# Assay type: in vivo, Galium aparine
# CONDITIONS: Rate 62 g/ha, Postemergence; scale of 0 to 10 where 0 is no effect and 10 is complete control
In this section we review reported Bedstraw plant response rating values for a set of molecules.
Number only, please.

# count of solved cases: 3
# MOLECULE, TARGET UNDER TEST, Bedstraw plant response rating
measured = [
    ("CC(C)N(C(=O)n1oc(=O)n(N(C)C)c1=O)c1ccccc1 [Compound 225]", "bedstraw", 0),
    ("Cc1ccccc1-n1c(=O)on(C(=O)N(c2ccc(Br)cc2)C(C)C)c1=O [Compound 175]", "bedstraw", 0),
    ("Cc1c(-n2c(=O)on(C(=O)N(c3ccccc3)C(C)C)c2=O)ccc2ccccc12 [Compound 344]", "bedstraw", 0),
]

Quick check: Bedstraw plant response rating on bedstraw, item C=C(C)CCn1c(=O)on(C(=O)N(c2ccc(F)cc2)C(C)C)c1=O [Compound 199] ? 0

Quick check: Bedstraw plant response rating on bedstraw, item C=CCn1c(=O)on(C(=O)N(c2ccc(F)cc2F)C(C)C)c1=O [Compound 151] ? 3

----------
# Test system: crabgrass
# TEST METHOD NOTES: Test B pre/postemergence crabgrass
# Assay type: in vivo, Digitaria sanguinalis
# CONDITIONS: Preemergence, Rate 125 g/ha; scale of 0 to 10 where 0 is no effect and 10 is complete control
In this section we review reported Plant response rating, Crabgrass values for a set of molecules.
Number only, please.

Quick one: Plant response rating, Crabgrass of COCC(OC)n1c(=O)on(C(=O)N(c2ccccc2)C(C)C)c1=O (stereo not shown) ? 9

Quick one: Plant response rating, Crabgrass of CC(=O)OCC(CCl)n1c(=O)on(C(=O)N(c2ccc(F)cc2F)C(C)C)c1=O (racemic) ? 7

----------
# Tested on: bamyardgrass
# TEST METHOD NOTES: Test B flood test barnyardgrass
# Format: in vivo, Echinochloa crus-galli
# CONDITIONS: Rate 500 g/ha, listed under Postemergence (flood test species); scale 0 to 10, 0 no effect, 10 complete control
PROPERTY MEASURED: Barnyardgrass plant response rating

Quick one: Barnyardgrass plant response rating of `Cc1cccc(Cl)c1-n1c(=O)on(C(=O)N(c2ccc(F)cc2)C(C)C)c1=O` ? 0

Quick one: Barnyardgrass plant response rating of `C=CCn1c(=O)on(C(=O)N(c2ccc(F)cc2F)C(C)C)c1=O` ? 8

Quick one: Barnyardgrass plant response rating of `Cc1cccc(Cl)c1-n1c(=O)on(C(=O)N(c2ccc(Cl)cc2)C(C)C)c1=O` ? 0

Quick one: Barnyardgrass plant response rating of `CCn1c(=O)on(C(=O)N(c2ccccc2)C(C)C)c1=O` ? 3

Quick one: Barnyardgrass plant response rating of `Cc1ccccc1-n1c(=O)on(C(=O)N(c2cc(F)cc(F)c2)C(C)C)c1=O` ? 0

----------
# Tested on: giant foxtail
# TEST METHOD NOTES: Test B pre/postemergence giant foxtail
# Assay type: in vivo, Setaria faberii
# CONDITIONS: Preemergence, Rate 125 g/ha
In this section we review reported Giant foxtail plant response rating (0 to 10 scale) values for a set of molecules.

# MOLECULE, REPORTED RESULT
records = [
    ("CC(C)N(C(=O)n1oc(=O)n(CCl)c1=O)c1ccc(F)cc1 [Compound 376]", 0),
    ("Cc1c(-n2c(=O)on(C(=O)N(c3ccc(Cl)cc3)C(C)C)c2=O)ccc2ccccc12 [Compound 336]", 0),
    ("CC1CC1n1c(=O)on(C(=O)N(c2ccc(Cl)cc2)C(C)C)c1=O (stereo not shown) [Compound 369]", 9),
    ("CC(C)N(C(=O)n1oc(=O)n(CCC#N)c1=O)c1ccc(F)cc1 [Compound 388]", 8),
]

Quick one: Giant foxtail plant response rating (0 to 10 scale) of CC(C)n1c(=O)on(C(=O)N(c2ccc(Cl)cc2Cl)C2CCC2)c1=O [Compound 319] ? 7

Quick one: Giant foxtail plant response rating (0 to 10 scale) of CC(C)N(C(=O)n1oc(=O)n(-c2ccc3ccccc3c2)c1=O)c1ccc(Cl)cc1 [Compound 333] ? 0

Quick one: Giant foxtail plant response rating (0 to 10 scale) of Cc1ccccc1-n1c(=O)on(C(=O)N(c2ccc(OC(F)(F)F)cc2)C(C)C)c1=O [Compound 300] ? 5

----------
In this section we review reported Morningglory plant response rating values for a set of compounds.
# Test system: morningglory
# TEST METHOD NOTES: Test B pre/postemergence morningglory
# Type: in vivo, Ipomoea hederacea
# CONDITIONS: Preemergence, Rate 125 g/ha; scale 0 to 10, 0 is no effect, 10 is complete control
Number only, please.

# count of solved cases: 4
# COMPOUND, PROPERTY MEASURED, REPORTED RESULT
measured = [
    ("CC(C)N(C(=O)n1oc(=O)n(CC2CCC2)c1=O)c1ccc(F)cc1F", "Morningglory plant response rating", 0),
    ("CC(C)N(C(=O)n1oc(=O)n(C(C)C(=O)c2ccccc2)c1=O)c1ccc(F)cc1F (centres unmarked)", "Morningglory plant response rating", 0),
    ("CC(C)N(C(=O)n1oc(=O)n(CCNC(=O)CCl)c1=O)c1ccccc1", "Morningglory plant response rating", 0),
    ("C=CCCCn1c(=O)on(C(=O)N(c2ccc(Cl)cc2)C(C)C)c1=O", "Morningglory plant response rating", 0),
]

Next compound, please.
Quick one: Morningglory plant response rating of `CCN(CC)C(=O)Cn1c(=O)on(C(=O)N(c2ccccc2)C(C)C)c1=O` ? 0

----------
In this section we review reported Giant foxtail plant response rating values for a set of compounds.
# Test system: giant foxtail
# TEST METHOD NOTES: Test B pre/postemergence giant foxtail
# Assay type: in vivo, Setaria faberii
# CONDITIONS: Preemergence, Rate 31 g/ha; visual rating, scale 0 to 10 (0 no effect, 10 complete control)

# count of solved cases: 3
# COMPOUND, Giant foxtail plant response rating
measured = [
    ("CCN(C(=O)n1oc(=O)n(-c2c(C)cccc2C)c1=O)C1CCCCC1", 0),
    ("CC(C)N(C(=O)n1oc(=O)n(C(C)C)c1=O)c1cnccn1", 0),
    ("Cc1nc(C)c(C(C)n2c(=O)on(C(=O)N(c3ccccc3)C(C)C)c2=O)s1 (stereo not shown)", 0),
]

Next compound, please.
Quick one: Giant foxtail plant response rating of `CC(=O)NCCn1c(=O)on(C(=O)N(c2ccc(F)cc2)C(C)C)c1=O` ? 5

----------
In this section we review reported Plant response rating, Nutsedge values for a set of molecules.
# Test system: purple nutsedge
# TEST METHOD NOTES: Test B pre/postemergence purple nutsedge
# Type: in vivo, Cyperus rotundus
# CONDITIONS: Preemergence, Rate 125 g/ha; scale 0 to 10 (0 no effect, 10 complete control)
Number only, please.

# count of solved cases: 3
# MOLECULE, Plant response rating, Nutsedge
data = [
    ("CCN(C(=O)n1oc(=O)n(-c2c(C)cccc2C)c1=O)C1CCCCC1 [Compound 27]", 0),
    ("CCCn1c(=O)on(C(=O)N(c2ccc(F)cc2)C(C)C)c1=O [Compound 91]", 0),
    ("Cc1cccc(Cl)c1-n1c(=O)on(C(=O)N(c2ccc(Cl)cc2)C(C)C)c1=O [Compound 54]", 0),
]

Quick one: Plant response rating, Nutsedge of Cc1ccccc1Cn1c(=O)on(C(=O)N(c2ccc(F)cc2F)C(C)C)c1=O [Compound 87] ? 0

Quick one: Plant response rating, Nutsedge of CCn1c(=O)on(C(=O)N(c2ccccc2)C(C)C)c1=O [Compound 117] ? 0

Quick one: Plant response rating, Nutsedge of CCN(CC)C(=O)n1oc(=O)n(Cc2cccs2)c1=O [Compound 77] ? 2

----------
# Tested on: soybean
# TEST METHOD NOTES: Test B pre/postemergence soybean
# Format: in vivo, Glycine max
# CONDITIONS: Postemergence, Rate 250 g/ha; scale 0 to 10, 0 no effect, 10 complete control
# Description: […] At the same time, these crop and weed species were also treated with postemergence applications of test chemicals formulated in the same manner. […] Treated plants and controls were maintained in a greenhouse for twelve to sixteen days, after which all species were compared to controls and visually evaluated. […]
PROPERTY MEASURED: Soybean plant response rating
Number only, please.

# ENTRY SMILES, TARGET UNDER TEST, Soybean plant response rating
measured = [
    ("Cc1cc(C)c(-n2c(=O)on(C(=O)N(c3ccc(F)cc3)C(C)C)c2=O)c(C)c1", "soybean", 3),
]

Quick one: Soybean plant response rating of `Cc1cccc(Cl)c1-n1c(=O)on(C(=O)N(c2ccc(F)cc2)C(C)C)c1=O` ? 3

Quick one: Soybean plant response rating of `CCN(CC)C(=O)n1oc(=O)n(Cc2cccs2)c1=O` ? 1

Quick one: Soybean plant response rating of `CCN(C(=O)n1oc(=O)n(-c2c(C)cccc2C)c1=O)C1CCCCC1` ? 2
